assay: NCI Yeast Anticancer Drug Screen. Data for the cln2 rad14 strain (AID 165);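 note: 0% = growth equal to vehicle treated cultures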; conditions: S. cerevisiae cln2 rad14 strain, at 50.0 µM, active compounds read high
Compounds without any hit were thinned out: in the full panel of roughly 79,000, 15% have a hit.
Reported Property: growth inhibition (%)
One number for each entry, in %.

The examples below pair each entry with its known result.
{"Compound": "COc1cc2c(cc1OC)C(NC(C)C)CCCC2 (stereo not given)", "growth inhibition, %": -23.6}
{"Compound": "NS(=O)(=O)c1ccc(NC(=O)c2cccn3c(=O)c4ccccc4nc23)cc1", "growth inhibition, %": 27.2}
{"Compound": "Oc1c(O)c(Cc2ccccc2)c(Cc2ccccc2)c(Cc2ccccc2)c1Cc1ccccc1", "growth inhibition, %": -44.2}
{"Compound": "C[Si](C)(C)CCCO", "growth inhibition, %": 6.9}
{"Compound": "CCCCOC(=O)NC(=O)c1cn(CCCOC(=O)CCCCCCCCC(=O)OCCCn2cc(C(=O)NC(=O)OCCCC)c(=O)n(C)c2=O)c(=O)n(C)c1=O", "growth inhibition, %": 12.2}

Take each entry in turn and give its growth inhibition.
1. C=C(CO)CC(CC(=C)CCS(=O)(=O)c1ccccc1)S(=O)(=O)c1ccccc1 (stereo not given)
2. CCOC(=O)C(c1ccccc1)c1ccccc1
3. O=C1NC(=O)C(=Nc2cccc3c(=O)[nH][nH]c(=O)c23)C(c2nc3ccccc3s2)C1=O (stereo not given)
4. CCOC(=O)NCc1ccccc1
5. Cc1cccnc1NCc1ccccn1

[out]
[8.85, -43.2, 8.7, 2.6, 4.35]

All values here come from PubChem BioAssay (NCI).
